System: SD rats
PROCEDURE_TEXT: Anesthetic effect (minimum effective anesthetic dose, LORR) after single tail vein injection in rats
Assay type: in vivo
SETUP_CONDITIONS: vehicle Pure water, sulfate salts
READOUT_KIND: Minimal effective anesthetic dose

Previously resolved entries follow.
COC(=O)[C@H](C)N1CCN(c2cc(C(C)C)c(O)c(C(C)C)c2)CC1 [Compound A20S]: B (5 mg/kg<B≤10 mg/kg)
COC(=O)[C@@H](C)N1CCN(c2cc(C(C)C)c(O)c([C@H](C)C3CC3)c2)CC1: A (A≤5 mg/kg)
CC(C)c1cc(N2CCN(CC(=O)OC(C)(C)C)C3(CC3)C2)cc([C@H](C)C2CC2)c1O: B (5 mg/kg<B≤10 mg/kg)
CC(C)c1cc(N2CCN([C@@H](C)C(=O)OC(C)(C)C)CC2)cc([C@H](C)C2CC2)c1O [Compound A19S]: B (5 mg/kg<B≤10 mg/kg)
COC(=O)[C@H](C)N1CCN(c2cc(C(C)C)c(O)c([C@H](C)C3CC3)c2)CC1: B (5 mg/kg<B≤10 mg/kg)
COC(=O)CN1CCN(c2cc(C(C)C)c(O)c([C@H](C)C3CC3)c2)CC12CC2: C (10 mg/kg<C≤20 mg/kg)
CCOC(=O)C(C1CC1)N1CCN(c2cc(C(C)C)c(O)c([C@H](C)C3CC3)c2)CC1 (stereo partly drawn): A (A≤5 mg/kg)

Reported Minimal effective anesthetic dose for `COC(=O)CN1CC2CCC(C1)N2c1cc(C(C)C)c(O)c([C@H](C)C2CC2)c1` was C (10 mg/kg<C≤20 mg/kg)

---

So I've got a bunch of molecules here, and I need their Righting Reflex Duration values.
Test system: SD rats
PROCEDURE_TEXT: Anesthetic effect (minimum effective anesthetic dose, LORR) after single tail vein injection in rats
Type: in vivo
SETUP_CONDITIONS: vehicle DMSO: A3 31.8%, A14 66.7%, A17 79.2%, A21S 66.7%, A23 60%, A24 82.8%
Experimental: The dose at which the LORR first occur was determined as the minimum effective anesthetic dose. The minimum effective anesthetic dose is further classified as: A≤5 mg/kg; 5 mg/kg<B≤10 mg/kg; 10 mg/kg<C≤20 mg/kg; D>20 mg/kg in this invention. The Up and down method was used to determine the ED50 of the compound causing the LORR. […] After observing five consecutive consistent directional changes in LORR occurrence and recovery, the ED50 was calculated using the Dixon-Mood formula. […]

response.value for CC(C)c1cc(N2CCN(CC(=O)OC(C)(C)C)CC2)cc([C@H](C)C2CC2)c1OCC(=O)OC(C)(C)C [Compound A14] (field: Righting Reflex Duration) = 1.95 to 11.67 min

# Righting Reflex Duration of CC(C)c1cc(N2CCN([C@@H](C)C(=O)OC(C)(C)C)CC2)cc(C(C)C)c1O [Compound A21S] = 12.02 to 22.80 min

Input COC(=O)CC(=O)N1CCN(c2cc(C(C)C)c(O)c([C@H](C)C3CC3)c2)CC1 [Compound A3] . Output Righting Reflex Duration: 1.02 to 2.08 min

The reported value for CC(C)c1cc(N2CCN(CC(=O)OC(C)(C)C)CC2)cc(C(C)C)c1O [Compound A17] in terms of Righting Reflex Duration is 3.67 to 9.38 min

Field Righting Reflex Duration (entry COC(=O)C(C(C)C)N1CCN(c2cc(C(C)C)c(O)c([C@H](C)C3CC3)c2)CC1 (stereo partly drawn) [Compound A23] ) reads 4.93 to 15.08 min

In plain terms, COC(=O)C(C1CC1)N1CCN(c2cc(C(C)C)c(O)c([C@H](C)C3CC3)c2)CC1 (stereo partly drawn) [Compound A24] has a documented Righting Reflex Duration of 5.53 to 9.67 min
